Data origin: ChEMBL document CHEMBL1255223

- System Tested: Excitatory amino acid transporter 1 (Homo sapiens, UniProt P43003)
- Sequence (P43003 whole entry): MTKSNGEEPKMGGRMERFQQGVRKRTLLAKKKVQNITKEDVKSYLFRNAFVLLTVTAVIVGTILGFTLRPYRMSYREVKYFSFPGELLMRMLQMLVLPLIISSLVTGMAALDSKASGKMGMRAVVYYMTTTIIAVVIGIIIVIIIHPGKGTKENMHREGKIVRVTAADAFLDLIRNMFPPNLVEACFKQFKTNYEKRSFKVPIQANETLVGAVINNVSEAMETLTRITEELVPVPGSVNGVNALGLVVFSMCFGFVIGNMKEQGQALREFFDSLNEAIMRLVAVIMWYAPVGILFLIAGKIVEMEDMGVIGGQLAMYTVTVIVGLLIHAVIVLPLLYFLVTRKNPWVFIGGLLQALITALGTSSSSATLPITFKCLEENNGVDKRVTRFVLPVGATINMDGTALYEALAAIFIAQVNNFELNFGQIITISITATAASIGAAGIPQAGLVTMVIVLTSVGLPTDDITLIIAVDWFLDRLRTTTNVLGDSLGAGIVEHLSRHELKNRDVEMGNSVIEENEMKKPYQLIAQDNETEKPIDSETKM
- Assay Info: Inhibition of human EAAT1 expressed in HEK293 cells by [3H]D-Asp uptake assay
- Format: cell-based
- Study Conditions: read-out: pIC50 (converted)

{"Compound": "N#CC1=C(N)OC2=C(C(=O)CCC2)C1c1ccccc1F (stereo not given)", "IC50": "> 316 µM"}
{"Compound": "N#CC1=C(N)OC2=C(C(=O)O[C@H](c3ccccc3)C2)[C@@H]1c1ccccc1 (relative stereo)", "IC50": "> 316 µM"}
{"Compound": "N#CC1=C(N)OC2=C(C(=O)N[C@H](c3ccccc3)C2)[C@@H]1c1ccccc1 (relative stereo)", "IC50": "> 316 µM"}
{"Compound": "COc1ccc(C2C(C#N)=C(N)OC3=C2C(=O)CC(Cc2ccccc2)C3)cc1 (stereo not given)", "IC50": "4.79 µM"}
{"Compound": "N#CC1=C(N)OC2=C(C(=O)N[C@@H](c3ccccc3)C2)[C@@H]1c1ccccc1 (relative stereo)", "IC50": "> 316 µM"}

---

- System Tested: Excitatory amino acid transporter 1 (Homo sapiens, UniProt P43003)
- Assay Info: Inhibition of human EAAT1 expressed in HEK293 cells by [3H]D-Asp uptake assay
- Assay type: cell-based
- Study Conditions: hek293
Entries and their measured pIC50 follow.

{"Compound": "N#CC1=COC2=C(C(=O)CC(c3ccccc3)C2)C1c1ccccc1 (stereo not given)", "pIC50": "< 4"}
{"Compound": "CCO/C=N/C1=C(C#N)C(c2ccccc2)C2=C(CC(c3ccccc3)CC2=O)O1 (stereo not given)", "pIC50": "< 3"}
{"Compound": "CC(=O)NC1=C(C#N)C(c2ccccc2)C2=C(CC(c3ccccc3)CC2=O)O1 (stereo not given)", "pIC50": "< 4"}
{"Compound": "NC(=O)C1=C(N)OC2=C(C(=O)CC(c3ccccc3)C2)C1c1ccccc1 (stereo not given)", "pIC50": "< 4"}
{"Compound": "NC1=CC(c2ccccc2)C2=C(CC(c3ccccc3)CC2=O)O1 (stereo not given)", "pIC50": "< 4"}

---

- System Tested: Excitatory amino acid transporter 1 (Homo sapiens)
- Assay Info: Inhibition of human EAAT1 expressed in HEK293 cells by [3H]D-Asp uptake assay
- Assay type: cell-based
- Study Conditions: read-out: IC50
Metric Name: IC50

{"Compound": "CC(C)(C)OC(=O)C1=C(N)OC2=C(C(=O)CC(c3ccccc3)C2)C1c1ccccc1 (centres undefined)", "System Tested": "Excitatory amino acid transporter 1 (Homo sapiens)", "Metric Name": "IC50", "Value Measured": "> 75 µM"}
{"Compound": "CCO/C=N/C1=C(C#N)C(c2ccccc2)C2=C(CC(c3ccccc3)CC2=O)O1 (centres undefined)", "System Tested": "Excitatory amino acid transporter 1 (Homo sapiens)", "Metric Name": "IC50", "Value Measured": "> 1000 µM"}
{"Compound": "NC1=CC(c2ccccc2)C2=C(CC(c3ccccc3)CC2=O)O1 (centres undefined)", "System Tested": "Excitatory amino acid transporter 1 (Homo sapiens)", "Metric Name": "IC50", "Value Measured": "> 100 µM"}
{"Compound": "COC(=O)C1=C(N)OC2=C(C(=O)CC(c3ccccc3)C2)C1c1ccccc1 (centres undefined)", "System Tested": "Excitatory amino acid transporter 1 (Homo sapiens)", "Metric Name": "IC50", "Value Measured": "> 300 µM"}
{"Compound": "COc1ccc(C2C(C#N)=C(N)OC3=C2C(=O)CC(Cc2ccccc2)C3)cc1 (centres undefined)", "System Tested": "Excitatory amino acid transporter 1 (Homo sapiens)", "Metric Name": "IC50", "Value Measured": "5.1 µM"}
{"Compound": "N#CC1=C(N)OC2=C(C(=O)O[C@@H](c3ccccc3)C2)[C@@H]1c1ccccc1 (relative stereo)", "System Tested": "Excitatory amino acid transporter 1 (Homo sapiens)", "Metric Name": "IC50", "Value Measured": "> 300 µM"}
{"Compound": "N#CC1=C(N)OC2=C(C(=O)CC(c3ccccc3)C2)C1c1ccccc1 (centres undefined)", "System Tested": "Excitatory amino acid transporter 1 (Homo sapiens)", "Metric Name": "IC50", "Value Measured": "3.8 µM"}
{"Compound": "COc1ccc(C2C(C#N)=C(N)OC3=C2C(=O)CC(c2ccc4ccccc4c2)C3)cc1 (centres undefined)", "System Tested": "Excitatory amino acid transporter 1 (Homo sapiens)", "Metric Name": "IC50", "Value Measured": "3.2 µM"}
{"Compound": "N#CC1=C(N)OC2=C(C(=O)N[C@@H](c3ccccc3)C2)[C@@H]1c1ccccc1 (relative stereo)", "System Tested": "Excitatory amino acid transporter 1 (Homo sapiens)", "Metric Name": "IC50", "Value Measured": "> 300 µM"}
